tested_target: nuclear factor-kappa B (NF-kB)-inducing kinase (NIK) (Homo sapiens)
Construct: made in house; host or cells: baculovirus-infected insect cells
test_protocol: NIK enzyme inhibition assay (Transcreener ADP fluorescence polarization, NIK ADP-FP)
Type: biochemical
Our labelling divides records by Ki into ranges: lower level = under 200 pM, middle level = from 200 pM up to 500 pM, upper level = 500 pM and over

molecule	label_value
CN1CC[C@@](O)(C#Cc2cccc(-c3cc(NC4COC4)cc(C(N)=O)n3)c2)C1=O	middle level

[in] Given Cc1ncc(-c2cccc(C#C[C@]3(O)CCN(C)C3=O)c2)nc1C(N)=O , name the class its Ki places it in.
[out] lower level

[in] Given CN1CC[C@@](O)(C#Cc2cc(F)cc(-c3nc(C(N)=O)cn4ccnc34)c2)C1=O , name the class its Ki places it in.
[out] middle level

[in] Given CN1CC[C@@](O)(C#Cc2cccc(-c3cc(-c4ncccn4)cc(C(N)=O)n3)c2)C1=O , name the class its Ki places it in.
[out] middle level

[in] Given CN1CC[C@@](O)(C#Cc2cccc(-c3nc(C(N)=O)c(NC4COC4)cc3F)c2)C1=O , name the class its Ki places it in.
[out] lower level

----------
tested_target: nuclear factor-kappa B (NF-kB)-inducing kinase (NIK) (Homo sapiens)
Construct: made in house; host or cells: baculovirus-infected insect cells
test_protocol: NIK enzyme inhibition assay (Transcreener ADP fluorescence polarization, NIK ADP-FP)
Format: biochemical
Our labelling divides records by Ki into ranges: class A = under 0.2 nM, class B = from 0.2 nM up to 0.7 nM, class C = 0.7 nM and over

COCCNc1cc(F)c(-c2cccc(C#C[C@]3(O)CCN(C)C3=O)c2)nc1C(N)=O class A
CN1CC[C@@](O)(C#Cc2cccc(-c3cnc(N)c(C(N)=O)n3)c2)C1=O class A
CN1CC[C@@](O)(C#Cc2cccc(-c3nc(C(N)=O)cc(N4CCOCC4)n3)c2)C1=O class C
CN1CC[C@@](O)(C#Cc2cccc(-c3nc(C(N)=O)cc4c3CCC4)c2)C1=O class B
CN1CC[C@@](O)(C#Cc2cccc(-c3nc(C(N)=O)cc(N4CCc5ccccc54)n3)c2)C1=O class C

[in] Given CN1CC[C@@](O)(C#Cc2cccc(-c3ncc(NCCN4CCOCC4)c(C(N)=O)n3)c2)C1=O , name the class its Ki places it in.
[out] class B

[in] Given CCNc1ccc(-c2ccc(C#N)c(C#C[C@]3(O)CCN(C)C3=O)c2)nc1C(N)=O , name the class its Ki places it in.
[out] class A

----------
tested_target: nuclear factor-kappa B (NF-kB)-inducing kinase (NIK) (Homo sapiens, UniProt Q99558)
Construct: made in house; host or cells: baculovirus-infected insect cells
Sequence (Q99558 whole entry): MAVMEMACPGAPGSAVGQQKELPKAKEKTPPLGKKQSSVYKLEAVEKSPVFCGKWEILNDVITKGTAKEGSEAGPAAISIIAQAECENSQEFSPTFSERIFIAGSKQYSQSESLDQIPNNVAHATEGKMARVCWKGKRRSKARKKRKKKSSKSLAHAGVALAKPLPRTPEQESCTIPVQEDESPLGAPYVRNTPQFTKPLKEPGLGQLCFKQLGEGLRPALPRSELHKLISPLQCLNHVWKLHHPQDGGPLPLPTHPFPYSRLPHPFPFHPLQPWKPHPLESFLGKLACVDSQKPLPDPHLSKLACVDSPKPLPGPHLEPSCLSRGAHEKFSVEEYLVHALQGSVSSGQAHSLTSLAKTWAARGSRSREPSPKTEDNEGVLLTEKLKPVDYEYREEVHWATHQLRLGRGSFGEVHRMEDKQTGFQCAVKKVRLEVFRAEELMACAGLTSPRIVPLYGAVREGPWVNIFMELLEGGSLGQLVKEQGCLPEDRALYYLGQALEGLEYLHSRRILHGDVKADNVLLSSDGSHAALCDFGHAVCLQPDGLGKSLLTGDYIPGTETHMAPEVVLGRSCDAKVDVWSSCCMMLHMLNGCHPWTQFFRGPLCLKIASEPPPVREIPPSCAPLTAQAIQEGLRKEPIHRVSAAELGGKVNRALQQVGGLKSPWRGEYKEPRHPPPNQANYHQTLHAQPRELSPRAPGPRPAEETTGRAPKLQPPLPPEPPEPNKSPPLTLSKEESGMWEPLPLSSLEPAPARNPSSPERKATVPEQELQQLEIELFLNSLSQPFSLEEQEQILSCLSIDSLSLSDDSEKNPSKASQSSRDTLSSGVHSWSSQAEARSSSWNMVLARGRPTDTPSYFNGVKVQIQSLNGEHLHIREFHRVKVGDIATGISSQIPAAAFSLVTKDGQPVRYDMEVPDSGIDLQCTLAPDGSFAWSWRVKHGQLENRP
test_protocol: NIK enzyme inhibition assay (Transcreener ADP fluorescence polarization, NIK ADP-FP)
Assay type: biochemical
Kindly state Ki for each of the entries shown.
Answers are plain numbers, in nM.

CN1CC[C@@](O)(C#Cc2cccc(-c3cc(-n4cncn4)cc(C(N)=O)n3)c2)C1=O 0.23

Hey, quick one: what's Ki for each of these?
1. Cc1nnc([C@](C)(O)C#Cc2cccc(-c3nc(C(N)=O)cc(-n4nccc4C)n3)c2)o1
2. CN1CC[C@@](O)(C#Cc2cccc(-c3nc(C(N)=O)cc(N4CC5(COC5)C4)n3)c2)C1=O

[out]
1. 0.99
2. 4.65

----------
tested_target: nuclear factor-kappa B (NF-kB)-inducing kinase (NIK) (Homo sapiens)
Construct: made in house; host or cells: baculovirus-infected insect cells
test_protocol: NIK enzyme inhibition assay (Transcreener ADP fluorescence polarization, NIK ADP-FP)
Format: biochemical
For each record, check the reported Ki: if it is below 0.1 nM write Satisfied, else write Not satisfied.

Reference set, count: 5
compound	label_value
CN1CC[C@@](O)(C#Cc2cccc(-c3nc(C(N)=O)cc(-c4cnccn4)n3)c2)C1=O	Not satisfied
CN1CC[C@@](O)(C#Cc2cccc(-c3nc(N[C@H]4CCOC4)cc(C(N)=O)n3)c2)C1=O (single isomer, unassigned)	Not satisfied
CN1CC[C@@](O)(C#Cc2cc(F)cc(-c3nc(C(N)=O)c(N)cc3F)c2)C1=O	Satisfied
CN1CC[C@@](O)(C#Cc2cccc(-c3nc(C(N)=O)c4ccn(C)c4n3)c2)C1=O	Not satisfied
CN1CC[C@@](O)(C#Cc2cccc(-c3nc(C(N)=O)c(N)c(-n4cccn4)n3)c2)C1=O	Satisfied

[in] Ki under 0.1 nM? Item: CN1CC[C@@](O)(C#Cc2cccc(-c3cc(-c4cnccn4)cc(C(N)=O)n3)c2)C1=O
[out] Satisfied

[in] Ki under 0.1 nM? Item: Cc1nccn1-c1cc(C(N)=O)nc(-c2cccc(C#C[C@]3(O)CCN(C)C3=O)c2)n1
[out] Not satisfied

[in] Ki under 0.1 nM? Item: CN1CC[C@@](O)(C#Cc2cccc(-c3nc(C(N)=O)cc(-c4cncn4C)n3)c2)C1=O
[out] Not satisfied

[in] Ki under 0.1 nM? Item: Cc1cnc([C@@](C)(O)C#Cc2cccc(-c3nc(C(N)=O)c4ccn(C)c4n3)c2)o1
[out] Not satisfied

[in] Ki under 0.1 nM? Item: NC(=O)c1nc(-c2cccc(C#C[C@@]3(O)CCOC3=O)c2)ccc1N (single isomer, unassigned)
[out] Not satisfied

[in] Ki under 0.1 nM? Item: CC(C)C[C@@H]1CCCN1c1cc(C(N)=O)nc(-c2cccc(C#C[C@]3(O)CCN(C)C3=O)c2)n1
[out] Not satisfied

[in] Ki under 0.1 nM? Item: COc1ccc2nc(-c3cccc(C#C[C@]4(O)CCN(C)C4=O)c3)nc(C(N)=O)c2c1
[out] Not satisfied

[in] Ki under 0.1 nM? Item: CN1CC[C@@](O)(C#Cc2cccc(-c3cc(OC(F)F)cc(C(N)=O)n3)c2)C1=O
[out] Satisfied

[in] Ki under 0.1 nM? Item: COCCNc1cnc(-c2cccc(C#C[C@]3(O)CCN(C)C3=O)c2)nc1C(N)=O
[out] Satisfied

----------
tested_target: nuclear factor-kappa B (NF-kB)-inducing kinase (NIK) (Homo sapiens)
Construct: made in house; host or cells: baculovirus-infected insect cells
test_protocol: NIK enzyme inhibition assay (Transcreener ADP fluorescence polarization, NIK ADP-FP)
Type: biochemical
experimental_endpoint: Ki (nM)
Give bare numbers, in nM.

Known Ki results, listed for orientation:
CN1CC[C@@](O)(C#Cc2cccc(-c3cc(-n4cccn4)cc(C(N)=O)n3)c2)C1=O 0.13
CN1CC[C@@](O)(C#Cc2cc(-c3nccc(C(N)=O)n3)c3cn[nH]c3c2)C1=O 11.3
COc1cc(C(N)=O)nc(-c2cccc(C#C[C@]3(O)CCN(C)C3=O)c2)c1F 0.5
CN1CC[C@@](O)(C#Cc2ccc(F)c(-c3ccc(N)c(C(N)=O)n3)c2)C1=O 0.05
Cc1nnc([C@](C)(O)C#Cc2cccc(-c3nc(C(N)=O)cc(-c4ccnn4C)n3)c2)o1 3.68
CN1CC[C@@](O)(C#Cc2cccc(-c3cc(-n4ccnc4)cc(C(N)=O)n3)c2)C1=O 0.17
CN1CC[C@@](O)(C#Cc2cccc(-c3ncc(NC4COC4)c(C(N)=O)n3)c2)C1=O 0.05
COc1ccc2c(C(N)=O)nc(-c3cccc(C#C[C@]4(O)CCN(C)C4=O)c3)nc2c1 0.11

Hey, quick one: what's Ki for each of these?
1. CN1CC[C@@](O)(C#Cc2cccc(-c3nccc(C(N)=O)n3)c2)C1=O
2. CN1CC[C@@](O)(C#Cc2cccc(-c3nc(C(N)=O)c4cccc(F)c4n3)c2)C1=O
3. CN1CC[C@@](O)(C#Cc2cccc(-c3nc(C(N)=O)cc(-n4ccnc4)n3)c2)C1=O
4. COc1cc(-c2cccc(C#C[C@]3(O)CCN(C)C3=O)c2)nc(C(N)=O)c1C
5. CON(C)c1cc(C(N)=O)nc(-c2cccc(C#C[C@]3(O)CCN(C)C3=O)c2)n1
6. CN1CC[C@@](O)(C#Cc2cccc(-c3nc(OC4COC4)c(N)c(C(N)=O)n3)c2)C1=O

[out]
1: 0.22; 2: 0.22; 3: 0.94; 4: 0.55; 5: 1.1; 6: 0.25

Hey, quick one: what's Ki for each of these?
1. CN1CC[C@@](O)(C#Cc2cccc(-c3nc(N)cc(C(N)=O)n3)c2)C1=O
2. CN1CC[C@@](O)(C#Cc2cccc(-c3nc(C(N)=O)cc(N4CCCC4)n3)c2)C1=O
3. CN1CC[C@@](O)(C#Cc2ccc(F)c(-c3ncc(N)c(C(N)=O)n3)c2)C1=O
4. CN1CC[C@@](O)(C#Cc2cccc(-c3ncc(N4CCOCC4)c(C(N)=O)n3)c2)C1=O
5. CN1CC[C@@](O)(C#Cc2cccc(-c3nc(NC4CC4)cc(C(N)=O)n3)c2)C1=O
6. CN1CC[C@@](O)(C#Cc2cccc(-c3nc4c(c(C(N)=O)n3)CCCC4)c2)C1=O
7. CN1CC[C@@](O)(C#Cc2cccc(-c3cc4c(Cl)c[nH]c4c(C(N)=O)n3)c2)C1=O
8. CN1CC[C@@](O)(C#Cc2cccc(-c3ncc(N[C@H]4CCOC4)c(C(N)=O)n3)c2)C1=O

[out]
0.38
0.8
0.14
22.8
1.24
1.42
0.1
0.24

Hey, quick one: what's Ki for each of these?
1. CC(=O)N1CCN(c2cc(C(N)=O)nc(-c3cccc(C#C[C@]4(O)CCN(C)C4=O)c3)n2)CC1
2. CN1CC[C@@](O)(C#Cc2ccc(F)c(-c3cnc(N)c(C(N)=O)n3)c2)C1=O
3. Cc1cc(C(N)=O)nc(-c2cccc(C#C[C@]3(O)CCN(C)C3=O)c2)c1
4. CN1CC[C@@](O)(C#Cc2cccc(-c3ncc(NCC4COC4)c(C(N)=O)n3)c2)C1=O
5. CN1CC[C@@](O)(C#Cc2cccc(-c3nc(C(N)=O)cc4c3ncn4C)c2)C1=O
6. COc1cc(C(N)=O)nc(-c2cc(F)cc(C#C[C@]3(O)CCN(C)C3=O)c2)c1
7. CN1CC[C@@](O)(C#Cc2cccc(-c3nc(C(N)=O)c4ccc(F)cc4n3)c2)C1=O

[out]
[1.25, 0.05, 0.09, 0.1, 0.94, 0.24, 0.08]
